# target: UniProt P21730
# Sequence (P21730 1-350): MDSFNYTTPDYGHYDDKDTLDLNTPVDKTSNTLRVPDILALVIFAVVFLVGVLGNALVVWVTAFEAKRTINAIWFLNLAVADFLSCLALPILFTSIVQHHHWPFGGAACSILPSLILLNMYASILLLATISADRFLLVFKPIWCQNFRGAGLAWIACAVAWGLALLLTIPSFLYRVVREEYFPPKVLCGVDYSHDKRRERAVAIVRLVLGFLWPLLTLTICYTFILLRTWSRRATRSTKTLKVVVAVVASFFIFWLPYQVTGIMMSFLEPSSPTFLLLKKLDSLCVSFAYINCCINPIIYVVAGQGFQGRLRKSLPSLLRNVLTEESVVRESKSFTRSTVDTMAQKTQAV
# test-method-notes: Anaphylatoxin (C5a) receptor binding Ki determination, 125I-C5a on PMNL membrane fragments
# test-parameters: read-out: Ki (In vitro C5a Receptor Binding Potency)
Where a SMILES comes first, the peptide text is derived from it. [ ]: non-standard residue; d: D form. ξ: configuration not given here. Gly(N(CH2)2(3-indolyl)) = O=C(O)CNCCc1c[nH]c2ccccc12; d(hhPhe) = N[C@H](CCCc1ccccc1)C(=O)O; Cha = N[C@@H](CC1CCCCC1)C(=O)O; ξhhPhe = NC(CCCc1ccccc1)C(=O)O; 3Amb = NCc1cccc(C(=O)O)c1; Ahx = NCCCCCC(=O)O
recorded-metric: Ki (µM)
Express it in µM; write the number only.

A selection of reference data follows.
>  <compound>
CC(C)C[C@H](NC(=O)CNCCc1c[nH]c2ccccc12)C(=O)N[C@H](CCCc1ccccc1)C(=O)N[C@@H](CCCNC(=N)N)C(=O)O [Example 79] (H-[Gly(N(CH2)2(3-indolyl))]L[d(hhPhe)]R-OH)

>  <recorded-metric>
Ki

>  <measurement-units>
µM

>  <experimental-value>
0.39

$$$$
>  <compound>
CC(C)C[C@H](NC(=O)CNC(=O)[C@H](CC1CCCCC1)NC(=O)CCN)C(=O)NC(CCCc1ccccc1)C(=O)N[C@@H](CCCNC(=N)N)C(=O)O (single isomer, unassigned) [Example 84]

>  <recorded-metric>
Ki

>  <measurement-units>
µM

>  <experimental-value>
3.9

$$$$
>  <compound>
CC(C)C[C@H](NC(=O)Cc1c[nH]c2ccccc12)C(=O)N[C@@H](CCCc1ccccc1)C(=O)N[C@@H](CCCNC(=N)N)C(=O)O [Example 20]

>  <recorded-metric>
Ki

>  <measurement-units>
µM

>  <experimental-value>
6.65

$$$$
>  <compound>
CC(C)C[C@H](NC(=O)CNC(=O)[C@H](CC1CCCCC1)NC(=O)CN(C)C(=O)CCCN)C(=O)NC(CCCc1ccccc1)C(=O)N[C@@H](CCCNC(=N)N)C(=O)O (single isomer, unassigned) [Example 112]

>  <recorded-metric>
Ki

>  <measurement-units>
µM

>  <experimental-value>
17.8

$$$$
>  <compound>
N=C(N)NCCC[C@H](NC(=O)C(CCCc1ccccc1)NC(=O)c1cccc(CNC(=O)[C@H](CC2CCCCC2)NC(=O)[C@@H]2CCCN2C(=O)CCCCCN)c1)C(=O)O (stereo partly drawn) [Example 109] (H-[Ahx]P[Cha][3Amb][ξhhPhe]R-OH)

>  <recorded-metric>
Ki

>  <measurement-units>
µM

>  <experimental-value>
4.8

$$$$
>  <compound>
CC(C)C[C@H](NC(=O)CNC(=O)C=C1CNc2ccccc21)C(=O)N[C@H](CCCc1ccccc1)C(=O)N[C@@H](CCCNC(=N)N)C(=O)O (single isomer, unassigned) [Example 65]

>  <recorded-metric>
Ki

>  <measurement-units>
µM

>  <experimental-value>
0.3

$$$$

The compound listed as CC(C)C[C@H](NC(=O)[C@H](C)NC(=O)[C@H](CC1CCCCC1)NC(=O)[C@@H]1CCCN1C(=O)[C@H](CCCCN)NC(=O)[C@@H](N)Cc1ccccc1)C(=O)N[C@H](CCCc1ccccc1)C(=O)N[C@@H](CCCNC(=N)N)C(=O)O [Example 2] (H-FKP[Cha]AL[d(hhPhe)]R-OH) has a reported Ki of 0.0048

The compound listed as CC(C)C[C@H](NC(=O)CCc1c[nH]c2ccccc12)C(=O)N[C@H](CCCc1ccccc1)C(=O)N[C@@H](CCCNC(=N)N)C(=O)O [Example 38] has a reported Ki of 8.4

The compound listed as CC(C)C[C@H](NC(=O)CNC(=O)[C@H](CC1CCCCC1)NC(=O)[C@@H](N)CCCCN)C(=O)NC(CCCc1ccccc1)C(=O)N[C@@H](CCCNC(=N)N)C(=O)O (single isomer, unassigned) [Example 41] has a reported Ki of 25.4
